Tested on: Nal^R mutants of E. coli
Type: cell-based, Escherichia coli
stated_conditions: CAN 117; 5 μg/ml
measure_name: Growth in poison agar medium

CCn1cc(C(=O)O)c(=O)c2cc3c(cc21)OCO3 ... +
C[C@@H]1CN(c2c(F)c(N)c3c(=O)c(C(=O)O)cn(C4CC4)c3c2F)C[C@H](C)N1 ... +
O=C(O)c1cn(C2CC2)c2cc(N3CCNCC3)c(F)cc2c1=O ... −
CCn1cc(C(=O)O)c(=O)c2cc(F)c(N3CCNC(C)C3)c(F)c21 (stereo not shown) ... −

---

Test system: Nal^R mutants of E. coli
Format: cell-based, Escherichia coli
stated_conditions: CAN 126; 5 μg/ml
measure_name: Growth in poison agar medium

CCn1cc(C(=O)O)c(=O)c2cc(F)c(N3CCNC(C)C3)c(F)c21 (stereo not shown) ... −
O=C(O)c1cn(C2CC2)c2cc(N3CCNCC3)c(F)cc2c1=O ... −
CCn1cc(C(=O)O)c(=O)c2cc3c(cc21)OCO3 ... +
C[C@@H]1CN(c2c(F)c(N)c3c(=O)c(C(=O)O)cn(C4CC4)c3c2F)C[C@H](C)N1 ... +

---

System: Nal^R mutants of E. coli
Assay type: cell-based, Escherichia coli
stated_conditions: CAN 115; 5 μg/ml
measure_name: Growth in poison agar medium

C[C@@H]1CN(c2c(F)c(N)c3c(=O)c(C(=O)O)cn(C4CC4)c3c2F)C[C@H](C)N1 ... +
CCn1cc(C(=O)O)c(=O)c2cc(F)c(N3CCNC(C)C3)c(F)c21 (stereo not shown) ... −
O=C(O)c1cn(C2CC2)c2cc(N3CCNCC3)c(F)cc2c1=O ... −
CCn1cc(C(=O)O)c(=O)c2cc3c(cc21)OCO3 ... +

---

System: Nal^R mutants of E. coli
Assay type: cell-based, Escherichia coli
stated_conditions: CAN 118; 5 μg/ml
measure_name: Growth in poison agar medium

CCn1cc(C(=O)O)c(=O)c2cc3c(cc21)OCO3 [Oxolinic Acid, oxolinic acid] ... +
C[C@@H]1CN(c2c(F)c(N)c3c(=O)c(C(=O)O)cn(C4CC4)c3c2F)C[C@H](C)N1 [Sparfloxacin] ... +
CCn1cc(C(=O)O)c(=O)c2cc(F)c(N3CCNC(C)C3)c(F)c21 (stereo not shown) [Lomefloxacin, lomefloxacin] ... −
O=C(O)c1cn(C2CC2)c2cc(N3CCNCC3)c(F)cc2c1=O [Ciprofloxacin, ciprofloxacin] ... −

---

Tested on: Nal^R mutants of E. coli
Format: cell-based, Escherichia coli
stated_conditions: CAN 105; 5 μg/ml
measure_name: Growth in poison agar medium

C[C@@H]1CN(c2c(F)c(N)c3c(=O)c(C(=O)O)cn(C4CC4)c3c2F)C[C@H](C)N1 ... +
O=C(O)c1cn(C2CC2)c2cc(N3CCNCC3)c(F)cc2c1=O ... −
CCn1cc(C(=O)O)c(=O)c2cc3c(cc21)OCO3 ... −
CCn1cc(C(=O)O)c(=O)c2cc(F)c(N3CCNC(C)C3)c(F)c21 (stereo not shown) ... −

---

Test system: Nal^R mutants of E. coli
Type: cell-based, Escherichia coli
stated_conditions: CAN 106; 5 μg/ml
measure_name: Growth in poison agar medium

C[C@@H]1CN(c2c(F)c(N)c3c(=O)c(C(=O)O)cn(C4CC4)c3c2F)C[C@H](C)N1 ... +
CCn1cc(C(=O)O)c(=O)c2cc(F)c(N3CCNC(C)C3)c(F)c21 (stereo not shown) ... −
CCn1cc(C(=O)O)c(=O)c2cc3c(cc21)OCO3 ... +
O=C(O)c1cn(C2CC2)c2cc(N3CCNCC3)c(F)cc2c1=O ... −
